- System: HL-60(TB) leukemia
- assay protocol: NCI tumour cell line growth inhibition, 48 h; in the data active = GI50 below about 0.43 µM; inactive = the rest
Please state which outcome applies, choosing from active, inactive

Please review the following examples before continuing.
O=c1cc(-c2cccc(Cl)c2)[nH]c2cc3c(cc12)OCO3    active
COC1C(OC(=O)/C=C/C=C/C=C/C=C/C(=O)O)CCC2(CO2)C1C1(C)OC1CC=C(C)C (configuration not stated)    active
CN1CCN(CCCOC(=O)c2c3c(n4ccccc24)C(=O)c2ncccc2C3=O)CC1    active
CCOc1cc(/C=C/C(=O)CC(=O)/C=C/c2ccc(OC(=O)CNc3nc4ccc(OC)cc4s3)c(OCC)c2)ccc1OC(=O)CNc1nc2ccc(OC)cc2s1    inactive
CCCCCCCCCCCC1=NC(C)(C)CN1C(C)C    inactive

# outcome recorded in this test, key = "CCn1c(-c2nonc2N)nc2cnc(Oc3cccc(NC(=O)c4ccc(OCCN5CCOCC5)cc4)c3)cc21"
inactive

# outcome recorded in this test, key = "COc1ccc2c(c1)c(-c1ccc(-c3cn(C)c4ccc(OC)cc34)s1)cn2C"
inactive

# outcome recorded in this test, key = "Cc1cc(NC(=O)NCCCOc2ccc(N3C(N)=NC(N)=NC3(C)C)cc2Cl)ccc1S(=O)(=O)F"
inactive

# outcome recorded in this test, key = "COCCn1c(Nc2ccc(C(=O)NO)cc2)nc2ccccc21"
inactive

# outcome recorded in this test, key = "CN(C)CCN1C(=O)c2cccc3cc(N)cc(c23)C1=O"
inactive

# outcome recorded in this test, key = "CC[O-].CC[O-].[O-]c1ccccc1C=NC12CC3CC(CC(C3)C1)C2.[O-]c1ccccc1C=NC12CC3CC(CC(C3)C1)C2.[Ti+4]"
inactive

# outcome recorded in this test, key = "N#Cc1cnc2ccc(NCc3cnc[nH]3)cc2c1Nc1ccc(F)c(Cl)c1"
inactive

---

- System: SNB-19 CNS
- assay protocol: NCI tumour cell line growth inhibition, 48 h
value kind: TGI

Solved entries (count: 10):
O=C1c2ccccc2C(=O)N1C/C=N/NS(=O)(=O)c1cccc([N+](=O)[O-])c1    > 100 µM
COc1ccc(OC)c([N+](=O)[O-])c1-c1nc2sc(Cl)cn2c1/C=N/N=C(N)N    43.4 µM
COc1ccc2c(c1)c(-c1ccc(-c3cn(C)c4ccc(OC)cc34)s1)cn2C    > 100 µM
[O-]c1ccccc1C=NCCN=Cc1ccccc1[O-].[O]=[U+2]=[O]    > 67.3 µM
COC(=O)c1sc2nc(Nc3ccccc3)c(=Nc3ccccc3)sc2c1C    > 100 µM
CC1=C[C@H](C[C@]2(C)c3c(c4c(C)cccc4oc3=O)O[C@@H]2C)OC1=O    > 100 µM
Cc1ccc(S(=O)(=O)N(CC(O)COc2ccccc2)c2c(F)c(F)c(F)c(F)c2F)cc1 (centres undefined)    43.3 µM
CC(C)N1CCOC(c2ccc(O)c(O)c2)C1 (centres undefined)    > 100 µM
C=C(C)[C@@H]1CC[C@]2(C(=O)OC)CC[C@]3(C)[C@H](CC[C@@H]4[C@@](C)(CCc5nn[nH]n5)[C@H](C(=C)C)CC[C@]43C)[C@@H]12    35.7 µM
CCN1CC2=C(OC(N)=C(C#N)C2c2ccc(Cl)cc2)/C(=C/c2ccc(Cl)cc2)C1 (centres undefined)    51 µM

Give the measured TGI of "CSC(=Nc1ccccc1)c1c(C)[nH]n(-c2ccccc2)c1=O" .
> 100 µM

Give the measured TGI of "CCOC(=O)CCCN" .
> 100 µM

Give the measured TGI of O=[N+]([O-])c1ccc(Cl)c(C2CC(c3cccc4ccccc34)=Nc3ccccc3S2=O)c1 (centres undefined) .
> 53.8 µM

Give the measured TGI of COC(=O)C1=C(C(=O)OC)C23CC4CCC2(C(=O)C1O3)C4(C)C (centres undefined) .
> 100 µM

Give the measured TGI of "O=C(Nc1ccc(Nc2ccc3c(c2)C(=O)c2ccccc2C3=O)c2c1C(=O)c1ccccc1C2=O)c1ccccc1" .
> 100 µM

---

- Test system: SR leukemia
- assay protocol: NCI tumour cell line growth inhibition, 48 h; in the data active = GI50 below about 0.43 µM; inactive = the rest
Please state which outcome applies, choosing from active, inactive

# outcome recorded in this test, key = "Cc1ccc(/C=C/C(=O)c2ccc(F)cc2)s1"
inactive

# outcome recorded in this test, key = "C=CCn1c(SCC(=O)Nc2ccc(C(=O)/C=C/c3cc(OC)c(OC)c(OC)c3)cc2)nnc1-c1cc(OC)c(OC)c(OC)c1"
inactive

# outcome recorded in this test, key = "CN1CCN(CCCOC(=O)c2c3c(n4ccccc24)C(=O)c2ncccc2C3=O)CC1"
active

# outcome recorded in this test, key = "COc1ccccc1C1C(C#N)=C(N)SC(N)=C1C#N"
inactive

# outcome recorded in this test, key = COC1C(OC(=O)/C=C/C=C/C=C/C=C/C(=O)O)CCC2(CO2)C1C1(C)OC1CC=C(C)C (stereo not given)
active

---

Reported values of TGI for individual entries
- Tested on: HT29 colon
- assay protocol: NCI tumour cell line growth inhibition, 48 h
Record the value in µM, omitting the unit from your answer.

OC(c1ccccc1)c1c(-c2ccccc2)[nH]c(-c2ccccc2)c1C(O)c1ccccc1 (centres undefined)    17.5
CCCSc1ccc2[nH]c(N3C(=O)/C(=C/c4ccc(O)c(OC)c4)N=C3c3ccccc3)cc2c1    88.9
CN(C)CCNc1c(O)c2c(c(O)c1Cl)C(=O)C=CC2=O    3.29
O=c1[nH]c2c(C(F)(F)F)c(Cl)c(-c3ccccc3)nc2o1    51.6
CCOC(=O)c1sc2nc(=S)[nH]c(NC(N)=S)c2c1C    52.9
COc1cc(-c2csc(NC(=O)Nc3ccc(Cl)cc3)n2)cc(OC)c1OC    12.4
COc1cccc2c1C(=O)c1c(O)c3c(c(O)c1C2=O)C[C@@](O)(/C(C)=N/NC(=O)c1cccc([N+](=O)[O-])c1)C[C@@H]3OC1CC(N)C(O)C(C)O1 (some centres undefined)    11.2
O=C(CSc1nc2ccccc2c(=O)n1-c1ccccc1)N=Nc1c(O)[nH]c2ccc(Br)cc12    3.7

Give the measured TGI of Cc1ccc(S(=O)(=O)N(CC(O)COc2ccccc2)c2c(F)c(F)c(F)c(F)c2F)cc1 (centres undefined) .
33

Give the measured TGI of "O=c1c(-c2cccc3ccccc23)c(-c2cccc3ccccc23)c1=O" .
3.03

Give the measured TGI of "Oc1ccc(CCNc2nc3ccccc3c3[nH]c4ccccc4c23)cc1O" .
11.1

---

- System: HCT-15 colon
- assay protocol: NCI tumour cell line growth inhibition, 48 h
Reported values of GI50 for individual entries

COc1ccccc1C1C(C#N)=C(N)SC(N)=C1C#N    81.3 µM

Give the measured GI50 of "COc1cc2c(cc1OCCCCCOc1ccc(-c3nc4ccccc4s3)cc1)N=C[C@@H]1CCCN1C2=O" .
2.46 µM

Give the measured GI50 of COc1cccc2c1C(=O)c1c(O)c3c(c(O)c1C2=O)C[C@@](O)(/C(C)=N/NC(=O)c1cccc([N+](=O)[O-])c1)C[C@@H]3OC1CC(N)C(O)C(C)O1 (some centres undefined) .
1.57 µM

Give the measured GI50 of "CCOC(=O)c1sc2nc(=S)[nH]c(NC(N)=S)c2c1C" .
16.7 µM

Give the measured GI50 of "COc1ccc2c(c1)c(-c1ccc(-c3cn(C)c4ccc(OC)cc34)s1)cn2C" .
> 100 µM

---

- Tested on: UACC-257 melanoma
- assay protocol: NCI tumour cell line growth inhibition, 48 h
value kind: TGI

O=C(O)c1ccccc1NS(=O)(=O)c1ccc(Cl)cc1    > 100 µM
O=c1[nH]nc(-c2ccc3ccccc3c2)[nH]1    > 100 µM
CC(C)(C)CNCCO    > 100 µM
COC(=O)C12C(=O)CC3CCC1C32C(=O)OC (centres undefined)    > 100 µM
COC(=O)C12CCCN1CCC2    > 100 µM

Give the measured TGI of "COc1ccc(-c2cc(=O)c3c(C)ccnc3[nH]2)cc1" .
> 100 µM

Give the measured TGI of CC(C)NC1CCCCC2c3ccccc3C12O (centres undefined) .
> 100 µM

Give the measured TGI of "O=C(c1ccccc1)c1nc2ccc(Cl)cc2cc1C(Br)Br" .
1.54 µM

Give the measured TGI of "[Cu].c1ccc2c(c1)C1=NC2=NC2=NC(=NC3=NC(=NC4=NC(=N1)c1ccccc14)c1ccccc13)c1ccccc12" .
> 100 µM

Give the measured TGI of "COc1cc2ncnc(Nc3cccc(Br)c3)c2cc1OC" .
> 40.9 µM

Give the measured TGI of "COc1cc2c(c3nc4ccccc4nc13)-c1ccc(SC)c(=O)cc1[C@@H](NC(C)=O)CC2" .
> 100 µM

Give the measured TGI of "O=C(O)c1c2c(c(O)c3c1CN(C1CCCCC1)CO3)OCN(C1CCCCC1)C2" .
> 100 µM

Give the measured TGI of "CCN(CC)C1=Nc2ccccc2-n2ccnc2C1" .
> 100 µM

Give the measured TGI of "Cc1cc2c3c(c1)S(=O)(=O)c1cc(Cl)ccc1N3CCC2" .
> 100 µM

Give the measured TGI of "C#CCOC(=O)C=[N+]=[N-]" .
> 10 µM

Give the measured TGI of "CN1CCC2(CC1)C(=O)Nc1cc(NC(=O)c3ccc4c(c3)C[C@@H]3C(C)(C)[C@H](O)[C@H](F)C[C@@]3(C)O4)ccc12" .
21.2 µM

Give the measured TGI of "COC(=O)c1sc2nc(Nc3ccccc3)c(=Nc3ccccc3)sc2c1C" .
> 100 µM

Give the measured TGI of "COc1cc(O)c2c(=O)c3cccc(C)c3[nH]c2c1" .
> 10 µM

Give the measured TGI of "O=C1c2cccnc2S(=O)(=O)N1c1ccc(Br)cc1" .
> 100 µM
